B1: OAS1 (parent)
chain: YIGTHEYPHFSHRPSTLQAASTPQ

- Variants of: B1
- measurement-protocol: protein stability index of a GFP-peptide fusion (GPS, HEK-293T) (PSI 1-6); higher = more stable;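 also: lentivirally expressed fusions sorted by FACS into six bins by GFP to DsRed ratio, PSI derived from sequencing read proportions per bin multiplied by bin number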
- experimental-parameters: c terminus: a fixed tail appended
Would you please tag the item True when its protein stability index is 2 or above, and False when it is below?

INSERT INTO assay_data (mutation_list, discrete_label) VALUES
  ('G3R', 'True'),
  ('H12M', 'False'),
  ('Q18L', 'True'),
  ('P14E', 'True'),
  ('Y1A', 'True'),
  ('G3P', 'True'),
  ('P8W', 'False'),
  ('F10V', 'True'),
  ('P8F', 'True'),
  ('S11V', 'True'),
  ('T16C', 'False'),
  ('Q24I', 'False'),
  ('R13G', 'False'),
  ('G3K', 'True'),
  ('A20E', 'True'),
  ('Q18I', 'False'),
  ('Q18W', 'True'),
  ('L17Y', 'True'),
  ('P8C', 'True'),
  ('T4R', 'False'),
  ('T16W', 'True');
